Hey, just so you know, these numbers are from the supplement of paper PMC10065799.

# tested-target: FGFR1 (UniProt P11362)
# Sequence (P11362 whole entry, looked up): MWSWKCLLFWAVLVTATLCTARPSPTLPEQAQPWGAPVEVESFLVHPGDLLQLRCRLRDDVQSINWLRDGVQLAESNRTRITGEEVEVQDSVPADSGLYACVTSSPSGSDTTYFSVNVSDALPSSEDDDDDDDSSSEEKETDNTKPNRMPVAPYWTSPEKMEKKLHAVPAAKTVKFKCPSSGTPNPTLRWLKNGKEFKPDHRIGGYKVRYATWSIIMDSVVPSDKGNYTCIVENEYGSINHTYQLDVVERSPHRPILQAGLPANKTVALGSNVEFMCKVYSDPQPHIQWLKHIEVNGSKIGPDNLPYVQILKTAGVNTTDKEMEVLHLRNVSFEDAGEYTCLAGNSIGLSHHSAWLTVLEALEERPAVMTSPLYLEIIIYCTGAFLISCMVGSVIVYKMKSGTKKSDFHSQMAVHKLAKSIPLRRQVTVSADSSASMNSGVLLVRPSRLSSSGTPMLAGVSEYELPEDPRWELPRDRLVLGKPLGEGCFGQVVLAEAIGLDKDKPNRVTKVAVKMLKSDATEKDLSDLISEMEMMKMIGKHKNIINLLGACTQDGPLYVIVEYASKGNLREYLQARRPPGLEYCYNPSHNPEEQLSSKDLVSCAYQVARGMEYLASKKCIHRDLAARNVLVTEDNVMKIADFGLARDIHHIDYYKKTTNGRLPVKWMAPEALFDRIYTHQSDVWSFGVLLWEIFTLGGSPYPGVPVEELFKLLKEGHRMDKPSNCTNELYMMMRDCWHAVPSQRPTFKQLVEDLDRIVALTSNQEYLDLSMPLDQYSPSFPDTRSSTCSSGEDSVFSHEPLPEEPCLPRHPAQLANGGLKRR
# assay-info: phosphorylation enrichment, bacterial display (enrichment ratio); higher = better substrate or ligand; peptides without Tyr show the background;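 note: 11-residue human phosphosite peptides and single-mutation variants displayed on the E. coli surface, counted by deep sequencing, each peptide's frequency after selection divided by its frequency in the unselected input library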;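 note: frequency after pTyr selection over input frequency; kinase dosed for 20-30% of maximal phosphorylation in three min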
Please enter criterion met where phosphorylation enrichment is greater than or equal to 0.5, and criterion not met where it is lower.

Previously resolved entries follow.
>>> qualitative_label("TVSTGYTQPQP [SARG_Y259_R258G]")
"criterion met"
>>> qualitative_label("SENPKYPEVGD [TMEM43_Y233]")
"criterion met"
>>> qualitative_label("SVVVPFEPPEV [TP53_Y220_Y220F]")
"criterion met"
>>> qualitative_label("ERWLKYFPIEQ [HS3ST5_Y244]")
"criterion not met"
>>> qualitative_label("DRLASYLEKVR [KRT13_Y118]")
"criterion not met"

(Q) Check the entry MDNQEYKDAYK [BRDT_Y331] : does phosphorylation enrichment equal or exceed 0.5?
(A) criterion not met

(Q) Check the entry REENGYNTFAS [FGF10_Y161_I156R_YF] : does phosphorylation enrichment equal or exceed 0.5?
(A) criterion met

(Q) Check the entry MKNDLYQTPLH [NFKB1_Y582_R578K] : does phosphorylation enrichment equal or exceed 0.5?
(A) criterion not met

(Q) Check the entry KKFPDYIQIAR [SGMS2_Y59_M64R_YF] : does phosphorylation enrichment equal or exceed 0.5?
(A) criterion met

(Q) Check the entry TYEPNYGTVKQ [RAPGEF6_Y1447] : does phosphorylation enrichment equal or exceed 0.5?
(A) criterion met

(Q) Check the entry VNKLVYENING [FRS2_Y306] : does phosphorylation enrichment equal or exceed 0.5?
(A) criterion met

(Q) Check the entry VEFAKYGSLQG [RET_Y809_R813Q_YF] : does phosphorylation enrichment equal or exceed 0.5?
(A) criterion not met

(Q) Check the entry DMQTLYVNTAA [SMCHD1_Y403] : does phosphorylation enrichment equal or exceed 0.5?
(A) criterion not met

(Q) Check the entry GMEIVYVFVKK [DNAI2_Y5_YF] : does phosphorylation enrichment equal or exceed 0.5?
(A) criterion met

* * *

# Tested on: c-Src
# assay-info: phosphorylation enrichment, bacterial display (enrichment ratio); higher = better substrate or ligand; peptides without Tyr show the background
Catalogue of phosphorylation enrichment values
Hey, just send me the number, nothing else.

>>> readout_value("QHVPDYRQNGF [PCDHGA1_Y890_V894G_YF]")
0.543
>>> readout_value("FFVVEYRNQKP [MUC17_Y4332_D4334N_YF]")
0.608
>>> readout_value("EKKKYYDTKIE [CASP5_Y104]")
0.452
>>> readout_value("VATRWYQSPEL [CDKL5_Y177_R178Q]")
0.443
>>> readout_value("YEEDSYVTRSQ [RET_Y905_K907T]")
0.496

(Q) Which phosphorylation enrichment value belongs to TTPAVYARVAK [CTRB2_Y246] ?
(A) 2.23

(Q) Which phosphorylation enrichment value belongs to YRQNGYIPGSN [PCDHGA1_Y895_V894G] ?
(A) 0.422

(Q) Which phosphorylation enrichment value belongs to VHNLDYYKQTT [FGFR3_Y647_K650Q] ?
(A) 0.697

(Q) Which phosphorylation enrichment value belongs to ATKNDYWAMLA [WWOX_Y287_P282A] ?
(A) 0.418

* * *

# tested-target: EPHB2 (UniProt P29323)
# Sequence (P29323 whole entry, looked up): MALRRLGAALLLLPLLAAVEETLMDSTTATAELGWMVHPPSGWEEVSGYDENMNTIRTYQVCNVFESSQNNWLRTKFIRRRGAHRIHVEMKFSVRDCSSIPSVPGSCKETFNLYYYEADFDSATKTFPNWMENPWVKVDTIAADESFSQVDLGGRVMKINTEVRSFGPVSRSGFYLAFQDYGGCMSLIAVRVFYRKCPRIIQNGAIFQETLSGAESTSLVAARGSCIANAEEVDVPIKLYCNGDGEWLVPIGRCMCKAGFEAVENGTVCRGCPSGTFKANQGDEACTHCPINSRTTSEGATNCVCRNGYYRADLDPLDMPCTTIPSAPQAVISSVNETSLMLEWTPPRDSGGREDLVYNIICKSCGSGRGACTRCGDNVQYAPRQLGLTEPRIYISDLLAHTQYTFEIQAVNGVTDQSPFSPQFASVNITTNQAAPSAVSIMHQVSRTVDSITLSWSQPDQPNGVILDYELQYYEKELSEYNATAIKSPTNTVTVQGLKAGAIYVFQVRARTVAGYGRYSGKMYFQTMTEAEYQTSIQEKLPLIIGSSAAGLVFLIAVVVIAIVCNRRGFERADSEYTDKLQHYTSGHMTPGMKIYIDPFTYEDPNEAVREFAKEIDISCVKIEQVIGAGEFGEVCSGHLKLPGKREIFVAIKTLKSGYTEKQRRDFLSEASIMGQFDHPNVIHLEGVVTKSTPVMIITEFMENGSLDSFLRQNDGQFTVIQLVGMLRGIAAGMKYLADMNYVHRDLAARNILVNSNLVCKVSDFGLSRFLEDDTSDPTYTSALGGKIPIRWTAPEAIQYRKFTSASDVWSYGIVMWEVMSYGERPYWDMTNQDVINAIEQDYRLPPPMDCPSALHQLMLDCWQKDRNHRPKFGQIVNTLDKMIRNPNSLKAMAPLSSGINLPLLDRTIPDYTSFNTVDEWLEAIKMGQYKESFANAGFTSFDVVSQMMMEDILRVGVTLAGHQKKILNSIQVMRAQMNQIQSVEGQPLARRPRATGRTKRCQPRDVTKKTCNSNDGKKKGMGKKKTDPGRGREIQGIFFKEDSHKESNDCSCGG
# assay-info: phosphorylation enrichment, bacterial display (enrichment ratio); higher = better substrate or ligand; peptides without Tyr show the background
Catalogue of phosphorylation enrichment values
Hey, just send me the number, nothing else.

Worked set:
>>> readout_value("HHTDEYEYDEL [TGM1_Y134]")
0.904
>>> readout_value("PQAVTYAKVKH [LILRB4_Y360]")
0.286
>>> readout_value("MHFSNYVSKGS [PDGFRA_Y849_D846Y_YF]")
0.439
>>> readout_value("QRIHDYYEHRY [HCN4_Y554]")
1.23
>>> readout_value("ISRASYYRKGG [ALK_Y1282_Y1278S]")
0.428

(Q) Which phosphorylation enrichment value belongs to DDPRTYQKYGY [OAS1_Y362_R361T] ?
(A) 0.611

(Q) Which phosphorylation enrichment value belongs to PFTDPYFDFEI [ZC3H18_Y371_A368T_YF] ?
(A) 0.64

(Q) Which phosphorylation enrichment value belongs to RRAKGYPINLF [ITGB2_Y125_D128N_YF] ?
(A) 0.613

(Q) Which phosphorylation enrichment value belongs to EQKKFSNAMKK [SCN5A_Y1495_Y1495S_YF] ?
(A) 0.345

(Q) Which phosphorylation enrichment value belongs to PHQTIYGALMI [FGF23_Y70_S71G] ?
(A) 0.711

(Q) Which phosphorylation enrichment value belongs to RHPEVYHHLGI [NVL_Y290_V295I] ?
(A) 0.599

(Q) Which phosphorylation enrichment value belongs to LFSINYLHFGE [KDM4C_Y201_YF] ?
(A) 0.661

(Q) Which phosphorylation enrichment value belongs to AFGTVYKGLWI [EGFR_Y727] ?
(A) 0.587

(Q) Which phosphorylation enrichment value belongs to MFCASYDTKQE [F10_Y407_G406S] ?
(A) 0.717

(Q) Which phosphorylation enrichment value belongs to RLASVYTKRCS [CPT2_Y508_P504L] ?
(A) 0.501
